B1: BTBD10 (parent)
chain: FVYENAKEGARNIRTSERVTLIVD

Variants of: B1
assayProtocol: protein stability index of a GFP-peptide fusion (GPS, HEK-293T) (PSI 1-6); higher = more stable;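 also: lentivirally expressed fusions sorted by FACS into six bins by GFP to DsRed ratio, PSI derived from sequencing read proportions per bin multiplied by bin number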
testParameters: c terminus: a fixed tail appended
Some variants, each annotated with its measured protein stability index.

Please review the following examples before continuing.
I22A; 1.76
L21S; 2.32
V2R; 3.04
F1T; 3.06
V19K; 1.91
A10F; 2.18
N5S; 1.54
V19E; 2.86
K7F; 1.85
K7D; 2.58

The variant identified as A6W registered its protein stability index at 2.05
